These data points were gathered from ChEMBL document CHEMBL1158870.

# Test system: SW-620
# Assay Method Text: Cytotoxicity against human SW620 cells by SRB assay
# Type: functional
Entries and their GI50

[
  {
    "Smiles Structure": "CC(=O)OC[C@H]1O[C@@H](O[C@@H]2C[C@H]3C(C)(C)[C@H](OC(C)=O)CC[C@]3(C)[C@H]3CCC4=C([C@@H](C)C[C@@H](O)[C@H](O)C(C)(C)O)CC[C@@]4(C)[C@@]32C)[C@H](O)[C@@H](O)[C@@H]1O",
    "GI50, µM": 17
  },
  {
    "Smiles Structure": "COC(C)(C)[C@@H](O)[C@H]1C[C@H](C)[C@@]2(CC[C@]3(C)[C@@H]2CC[C@@H]2[C@@]4(C)CC[C@@H](OC(C)=O)C(C)(C)[C@@H]4C[C@@H](O[C@@H]4O[C@H](COC(C)=O)[C@@H](O)[C@H](O)[C@H]4O)[C@]23C)O1",
    "GI50, µM": 6.46
  },
  {
    "Smiles Structure": "CC(=O)OC[C@H]1O[C@@H](O[C@@H]2C[C@H]3C(C)(C)[C@H](OC(C)=O)CC[C@]3(C)[C@H]3CC[C@@H]4[C@]5(CC[C@@]4(C)[C@@]32C)O[C@@H]([C@H](O)C(C)(C)O)C[C@@H]5C)[C@H](O)[C@@H](O)[C@@H]1O",
    "GI50, µM": 10.5
  }
]

###

# Tested on: CCRF-CEM
# Assay Method Text: Cytotoxicity against human CCRF-CEM cells by SRB assay
# Format: functional

[
  {
    "Smiles Structure": "C=C1[C@@H](O)C[C@@]23CC[C@@H]4[C@@]5(C)CC[C@@H](OC(C)=O)C(C)(C)[C@@H]5C[C@@H](O[C@@H]5O[C@H](COC(C)=O)[C@@H](O)[C@H](O)[C@H]5O)[C@@]4(C)C2=CC[C@H]3[C@H]1C",
    "Target Entity": "CCRF-CEM",
    "GI50 / nM": 2570
  },
  {
    "Smiles Structure": "COC(C)(C)[C@@H](O)[C@H](O)C[C@H](C)C1=C2CC[C@@H]3[C@@]4(C)CC[C@@H](OC(C)=O)C(C)(C)[C@@H]4C[C@@H](O[C@@H]4O[C@H](COC(C)=O)[C@@H](O)[C@H](O)[C@H]4O)[C@@]3(C)[C@]2(C)CC1",
    "Target Entity": "CCRF-CEM",
    "GI50 / nM": 5370
  },
  {
    "Smiles Structure": "C=C(C)[C@@H](O)[C@H](O)C[C@H](C)[C@@H]1CC[C@]2(C)C1=CC[C@@H]1[C@@]3(C)CC[C@@H](OC(C)=O)C(C)(C)[C@@H]3C[C@@H](O[C@@H]3O[C@H](COC(C)=O)[C@@H](O)[C@H](O)[C@H]3O)[C@]12C",
    "Target Entity": "CCRF-CEM",
    "GI50 / nM": 2240
  }
]

###

# System: Malme-3M
# Assay Method Text: Cytotoxicity against human MALME-3M cells by SRB assay
# Type: functional

[
  {
    "Smiles Structure": "C=C(C)[C@@H](O)[C@H](O)C[C@H](C)[C@@H]1CC[C@]2(C)C1=CC[C@@H]1[C@@]3(C)CC[C@@H](OC(C)=O)C(C)(C)[C@@H]3C[C@@H](O[C@@H]3O[C@H](COC(C)=O)[C@@H](O)[C@H](O)[C@H]3O)[C@]12C",
    "GI50 / µM": 1.58
  },
  {
    "Smiles Structure": "CC(=O)OC[C@H]1O[C@@H](O[C@@H]2C[C@H]3C(C)(C)[C@H](OC(C)=O)CC[C@]3(C)[C@H]3CC[C@@]45C[C@H](O)C[C@H](C)[C@@H]4CC=C5[C@@]32C)[C@H](O)[C@@H](O)[C@@H]1O",
    "GI50 / µM": 9.33
  },
  {
    "Smiles Structure": "C=C1[C@@H](O)C[C@@]23CC[C@@H]4[C@@]5(C)CC[C@@H](OC(C)=O)C(C)(C)[C@@H]5C[C@@H](O[C@@H]5O[C@H](COC(C)=O)[C@@H](O)[C@H](O)[C@H]5O)[C@@]4(C)C2=CC[C@H]3[C@H]1C",
    "GI50 / µM": 11.5
  }
]

###

# Tested on: CAKI-1
# Assay Method Text: Cytotoxicity against human Caki1 cells by SRB assay
# Assay type: functional

[
  {
    "Smiles Structure": "COC(C)(C)[C@@H](O)[C@H](O)C[C@H](C)C1=C2CC[C@@H]3[C@@]4(C)CC[C@@H](OC(C)=O)C(C)(C)[C@@H]4C[C@@H](O[C@@H]4O[C@H](COC(C)=O)[C@@H](O)[C@H](O)[C@H]4O)[C@@]3(C)[C@]2(C)CC1",
    "GI50": "4.07 µM"
  },
  {
    "Smiles Structure": "CC(=O)OC[C@H]1O[C@@H](O[C@@H]2C[C@H]3C(C)(C)[C@H](OC(C)=O)CC[C@]3(C)[C@H]3CCC4=C([C@@H](C)C[C@@H](O)[C@H](O)C(C)(C)O)CC[C@@]4(C)[C@@]32C)[C@H](O)[C@@H](O)[C@@H]1O",
    "GI50": "15.5 µM"
  },
  {
    "Smiles Structure": "CC(=O)OC[C@H]1O[C@@H](O[C@@H]2C[C@H]3C(C)(C)[C@H](OC(C)=O)CC[C@]3(C)[C@H]3CC[C@@]45C[C@H](O)C[C@H](C)[C@@H]4CC=C5[C@@]32C)[C@H](O)[C@@H](O)[C@@H]1O",
    "GI50": "9.55 µM"
  }
]

###

# System: HCC 2998
# Assay Method Text: Cytotoxicity against human HCC2998 cells by SRB assay
# Type: functional
Rule: measured TGI below 4 µM gets T; anything equal to or greater than 4 µM gets F.

[
  {
    "Compound": "C=C(C)[C@@H](O)[C@H](O)C[C@H](C)[C@@H]1CC[C@]2(C)C1=CC[C@@H]1[C@@]3(C)CC[C@@H](OC(C)=O)C(C)(C)[C@@H]3C[C@@H](O[C@@H]3O[C@H](COC(C)=O)[C@@H](O)[C@H](O)[C@H]3O)[C@]12C",
    "Cat": "T"
  },
  {
    "Compound": "COC(C)(C)[C@@H](O)[C@H]1C[C@H](C)[C@@]2(CC[C@]3(C)[C@@H]2CC[C@@H]2[C@@]4(C)CC[C@@H](OC(C)=O)C(C)(C)[C@@H]4C[C@@H](O[C@@H]4O[C@H](COC(C)=O)[C@@H](O)[C@H](O)[C@H]4O)[C@]23C)O1",
    "Cat": "T"
  },
  {
    "Compound": "CC(=O)OC[C@H]1O[C@@H](O[C@@H]2C[C@H]3C(C)(C)[C@H](OC(C)=O)CC[C@]3(C)[C@H]3CCC4=C([C@@H](C)C[C@@H](O)[C@H](O)C(C)(C)O)CC[C@@]4(C)[C@@]32C)[C@H](O)[C@@H](O)[C@@H]1O",
    "Cat": "F"
  },
  {
    "Compound": "CC(=O)OC[C@H]1O[C@@H](O[C@@H]2C[C@H]3C(C)(C)[C@H](OC(C)=O)CC[C@]3(C)[C@H]3CC[C@]45C[C@]4(CC[C@H]5[C@@H](C)C[C@@H](O)[C@H](O)C(C)(C)O)[C@@]32C)[C@H](O)[C@@H](O)[C@@H]1O [CUMINGIANOSIDE A]",
    "Cat": "F"
  },
  {
    "Compound": "C=C(C)[C@@H](O)[C@H](O)C[C@H](C)[C@@H]1CC[C@]23C[C@]12CC[C@@H]1[C@@]2(C)CC[C@@H](OC(C)=O)C(C)(C)[C@@H]2C[C@@H](O[C@@H]2O[C@H](COC(C)=O)[C@@H](O)[C@H](O)[C@H]2O)[C@]13C [CUMINGIANOSIDE D]",
    "Cat": "F"
  },
  {
    "Compound": "CC(=O)OC[C@H]1O[C@@H](O[C@@H]2C[C@H]3C(C)(C)[C@H](OC(C)=O)CC[C@]3(C)[C@H]3CC[C@@]45C[C@H](O)C[C@H](C)[C@@H]4CC=C5[C@@]32C)[C@H](O)[C@@H](O)[C@@H]1O",
    "Cat": "T"
  },
  {
    "Compound": "COC(C)(C)[C@@H](O)[C@H](O)C[C@H](C)[C@@H]1CC[C@]23C[C@]12CC[C@@H]1[C@@]2(C)CC[C@@H](OC(C)=O)C(C)(C)[C@@H]2C[C@@H](O[C@@H]2O[C@H](COC(C)=O)[C@@H](O)[C@H](O)[C@H]2O)[C@]13C [CUMINGIANOSIDE C]",
    "Cat": "F"
  },
  {
    "Compound": "CC(=O)OC[C@H]1O[C@@H](O[C@@H]2C[C@H]3C(C)(C)[C@H](OC(C)=O)CC[C@]3(C)[C@H]3CC[C@]45C[C@]4(CC[C@H]5[C@@H](C)C[C@@H](O)[C@@H]4OC4(C)C)[C@@]32C)[C@H](O)[C@@H](O)[C@@H]1O [CUMINGIANOSIDE E]",
    "Cat": "T"
  },
  {
    "Compound": "C=C(C=O)[C@H](C)[C@@H]1CC[C@]23C[C@]12CC[C@@H]1[C@@]2(C)CC[C@@H](OC(C)=O)C(C)(C)[C@@H]2C[C@@H](O[C@@H]2O[C@H](COC(C)=O)[C@@H](O)[C@H](O)[C@H]2O)[C@]13C [CUMINDYSODIDE A]",
    "Cat": "T"
  },
  {
    "Compound": "COC(C)(C)[C@@H](O)[C@H](O)C[C@H](C)C1=C2CC[C@@H]3[C@@]4(C)CC[C@@H](OC(C)=O)C(C)(C)[C@@H]4C[C@@H](O[C@@H]4O[C@H](COC(C)=O)[C@@H](O)[C@H](O)[C@H]4O)[C@@]3(C)[C@]2(C)CC1",
    "Cat": "F"
  },
  {
    "Compound": "C=C1[C@@H](O)C[C@@]23CC[C@@H]4[C@@]5(C)CC[C@@H](OC(C)=O)C(C)(C)[C@@H]5C[C@@H](O[C@@H]5O[C@H](COC(C)=O)[C@@H](O)[C@H](O)[C@H]5O)[C@@]4(C)C2=CC[C@H]3[C@H]1C",
    "Cat": "T"
  },
  {
    "Compound": "CC(=O)OC[C@H]1O[C@@H](O[C@@H]2C[C@H]3C(C)(C)[C@H](OC(C)=O)CC[C@]3(C)[C@H]3CC[C@@H]4[C@]5(CC[C@@]4(C)[C@@]32C)O[C@@H]([C@H](O)C(C)(C)O)C[C@@H]5C)[C@H](O)[C@@H](O)[C@@H]1O",
    "Cat": "F"
  }
]
